details: human
Counter-ions that a name gives are not always drawn.
quantity: Adverse Event Seriousness
Quick one: just the number, no unit, thanks!

[N]=O [nitric oxide] : 19.58

Ask: Fill in the blank: the reported Adverse Event Seriousness of CC(C)C[C@H](CN)CC(=O)O [pregabalin] is ____.
Result: 7.13

Ask: Fill in the blank: the reported Adverse Event Seriousness of O=C1NC(=O)C(c2ccccc2)(c2ccccc2)N1 [phenytoin sodium] is ____.
Result: 8.38

Ask: Fill in the blank: the reported Adverse Event Seriousness of O=C1NC(c2ccccc2)(c2ccccc2)C(=O)N1COP(=O)(O)O [fosphenytoin sodium] is ____.
Result: 8.16

Ask: Fill in the blank: the reported Adverse Event Seriousness of C#Cc1cccc(Nc2ncnc3cc(OCCOC)c(OCCOC)cc23)c1 [erlotinib hydrochloride] is ____.
Result: 18.95
